Assay: Cellular Toxicity (caspase-3) NIH 3T3 (AID 666);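 also: caspase signal read after 16 h compound exposure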
Conditions used: NIH 3T3 caspase-3 activation, apoptosis/toxicity; series mostly up to 92.2 µM
From the text: NIH Chemical Genomics Center [NCGC] NIH Molecular Libraries Screening Centers Network [MLSCN] National Institutes of Environmental Health Sciences [NIEHS] National Toxicology Program [NTP] We have developed a 1536-well cell-based assay for quantitative high throughput screening (qHTS) against a number of cell lines to determine in vitro caspase 3/7 of small molecules. […] 8. Detection; Luminescence; Viewlux plate reader […]
Records with an inconclusive call do not appear. Calls of active or inactive are those of the source. Calls follow the shape of the dose curve; as a rule, active = well fitted activation curve with a large enough effect; inconclusive = small, poorly fitted or top-dose-only effect, or effect the other way; inactive = flat fitted curve, though single readings scatter.
Outcomes you can answer with include only these: active, inactive

The examples below pair each entry with its known result.
CCCCCCCCCCCCCCCCCC(=O)O	inactive
CN(C)c1ccc(N=NS(=O)(=O)O)cc1	inactive
CC(C)NCC(O)COc1cccc2ccccc12 (stereo not given)	inactive
CC1(C)S[C@@H]2[C@H](NC(=O)[C@H](N)c3ccccc3)C(=O)N2[C@H]1C(=O)O	inactive
Nc1ccc([N+](=O)[O-])cc1O	inactive
c1ccc2sc(SSc3nc4ccccc4s3)nc2c1	inactive
O=C(O)/C=C\C(=O)O	inactive
CN1CCC[C@H]1c1cccnc1	inactive
CN(C)c1ccc(C(=C2C=CC(=[N+](C)C)C=C2)c2ccccc2)cc1	active

Kindly consider the entry below.
Answer briefly: the call reported for Nc1ccc(O)c(C(=O)O)c1 in this assay.
inactive

###

Test system: OV90
Assay: Primary qHTS to identify gynecologic anti-cancer compounds using libraries of approved drugs and bioactive compounds (AID 1345084); also: nearly all actives have a fitted effect of over 55% in size
Conditions used: Gynecologic cancer cell panel viability, ATPlite luminescence, 48 h; series mostly up to 57.5 µM
Records with an inconclusive call do not appear. The source made the active and inactive calls. Calls come from the whole dose curve; as a rule, active = well fitted cell-killing curve with a large enough effect; inconclusive = small, poorly fitted or top-dose-only effect, or effect the other way; inactive = flat fitted curve, though single readings scatter.
In this exercise, the only acceptable responses are active, inactive

Please review the following examples before continuing.
CC(C)OC(=O)c1cc(C(=O)OC(C)C)cc([N+](=O)[O-])c1	inactive
Nc1cc(-c2ccncc2)c[nH]c1=O	inactive

Lab log entry: c1ccc2sc(SSc3nc4ccccc4s3)nc2c1 — outcome as called in the assay?
inactive

Next entry: CC(=O)SCC(CC(=O)c1ccc(C)cc1)C(=O)O (configuration not stated)
inactive

And C#CC1(O)CC[C@H]2[C@@H]3CCC4=CCCC[C@@H]4[C@H]3CC[C@@]21C (some centres not stated) ?
inactive

// repeat for CC(C)(C)c1nnc(NS(=O)(=O)c2ccc(N)cc2)s1 and report
inactive

Now the same for CCN(CC)CCCCNc1ncc2cc(-c3c(Cl)cccc3Cl)c(NC(=O)NC(C)(C)C)nc2n1
active

Next: CN(C)[C@@H]1C(=O)C(C(=O)NCN2CCCC2)=C(O)[C@@]2(O)C(=O)C3=C(O)c4c(O)cccc4[C@@](C)(O)C3C[C@@H]12 (some centres not stated)
inactive

Now consider CO[C@@]1(NC(=O)Cc2cccs2)C(=O)N2C(C(=O)O)=C(COC(N)=O)CS[C@@H]21 .
inactive

Could you do the same for CN(C)CCn1nnnc1SCC1=C(C(=O)O)N2C(=O)[C@@H](NC(=O)Cc3csc(N)n3)[C@H]2SC1 , please?
inactive

How about NS(=O)(=O)c1ccc(-n2nc(C(F)(F)F)cc2-c2ccc(Cl)cc2)cc1 ?
inactive

Next molecule up: CS(=O)(=O)c1ccc(-n2nc(C(F)(F)F)cc2-c2ccc(F)cc2)cc1
inactive
